Molecular target: T1, human GFRα3 expressed with a C-terminal mFc tag (human)
T1 construct: also called hGFRα3-mFc
T1 chain: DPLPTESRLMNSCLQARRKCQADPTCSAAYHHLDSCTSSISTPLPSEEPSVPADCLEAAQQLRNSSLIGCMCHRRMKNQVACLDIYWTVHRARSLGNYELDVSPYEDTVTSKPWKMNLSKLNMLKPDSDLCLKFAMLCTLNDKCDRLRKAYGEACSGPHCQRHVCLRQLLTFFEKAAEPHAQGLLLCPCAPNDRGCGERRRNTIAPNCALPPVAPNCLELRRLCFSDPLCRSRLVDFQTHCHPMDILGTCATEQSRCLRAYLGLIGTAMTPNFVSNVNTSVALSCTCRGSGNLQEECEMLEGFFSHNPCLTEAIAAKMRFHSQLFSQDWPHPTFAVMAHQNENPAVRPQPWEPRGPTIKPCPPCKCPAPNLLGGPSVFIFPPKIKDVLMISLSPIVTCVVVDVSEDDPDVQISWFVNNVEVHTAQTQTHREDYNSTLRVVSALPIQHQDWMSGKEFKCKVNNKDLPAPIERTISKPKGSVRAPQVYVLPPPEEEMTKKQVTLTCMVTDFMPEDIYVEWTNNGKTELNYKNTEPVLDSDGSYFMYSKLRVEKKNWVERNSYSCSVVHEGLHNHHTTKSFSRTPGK
Test: SPR, Ab captured, 25C
ENDPOINT NAME: kon

| BINDER | ENDPOINT NAME | OBSERVED RESULT |
| --- | --- | --- |
| H4H2293P (antibody, human IgG4, V domains shown, human IgG4 Fc (H4H)) VH: QVQLVESGGGVVQPGRSLRLSCAASGFSFSDYVMHWVRQAPGKGLEWVASIWFDGSNELYADSVKGRFTISRDNSKNTLFLQMNSLRAEDTAVYYCAKKGVLVATSAFHIWGQGTMVTVSS VL: AIQMTQSPSSLSASVGDRVTITCRASQNINNYLNWYHQKPGKAPNLLIYAASSLQSGVPSRFSGSGSGTDYTLTISSLQPEDFGNYYCQQSYSTSMYTFGQGTKLEIK | kon | 1.22e+06 M⁻¹ s⁻¹ |
| H4H2292S (antibody, human IgG4, V domains shown, human IgG4 Fc (H4H)) VH: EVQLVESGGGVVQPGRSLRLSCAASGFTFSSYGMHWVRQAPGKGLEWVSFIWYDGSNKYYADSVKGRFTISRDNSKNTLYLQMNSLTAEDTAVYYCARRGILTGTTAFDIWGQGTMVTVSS VL: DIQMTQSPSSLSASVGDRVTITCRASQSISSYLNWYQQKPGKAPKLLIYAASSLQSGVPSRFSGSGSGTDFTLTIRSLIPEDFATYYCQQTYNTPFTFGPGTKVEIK | kon | 534000 M⁻¹ s⁻¹ |
| H4H2352S (antibody, human IgG4, V domains shown, human IgG4 Fc (H4H); also called H4H2352S-1) VH: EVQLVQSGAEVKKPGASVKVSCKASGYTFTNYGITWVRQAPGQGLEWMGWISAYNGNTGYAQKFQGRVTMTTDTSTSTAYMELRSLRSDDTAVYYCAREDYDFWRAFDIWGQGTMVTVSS VL: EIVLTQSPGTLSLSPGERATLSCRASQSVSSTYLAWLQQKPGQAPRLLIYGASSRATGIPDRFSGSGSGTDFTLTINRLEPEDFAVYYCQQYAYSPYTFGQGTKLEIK | kon | 2.14e+06 M⁻¹ s⁻¹ |
